The measurements presented in this section are drawn from ChEMBL document CHEMBL1201862.

- Tested on: LOX IMVI
- assay-method-text: NCI tumour cell line growth inhibition, 48 h
The source made the active and inactive calls. Rule as the data show it: active = GI50 up to about 1.1 µM and inactive = higher.
measurement-name: GI50

Observe how each entry below is paired with its result.
compound	measurement-name	observed-value
Nc1ncc(/C=N/O)c(NCC2(CO)CC(CCc3ccccc3)C2)n1 (configuration not stated)	GI50	2.39 µM (inactive)
S=C(S)N1CCN(c2ccccc2)CC1	GI50	32.9 µM (inactive)
O=c1cc(N2CCOCC2)[nH]c(=O)n1-c1cccc(Cl)c1	GI50	> 100 µM (inactive)
Nc1ccc(C23CC4CC(C2)CC(c2ccc(N)cc2)(C4)C3)cc1	GI50	> 100 µM (inactive)
O=C1c2ccccc2C(=O)N1CC1(C(=O)O)NCCS1(=O)=O (configuration not stated)	GI50	> 100 µM (inactive)

Recorded GI50 for CC(C)Oc1cccc(N2C(n3ccnc3)=Nc3ccncc3S2(=O)=O)c1 , please?
16.2 µM (inactive)

Recorded GI50 for Nc1nc(Cl)cc(NCCCCCCCCCCNc2cc(Cl)nc(N)n2)n1 , please?
1.56 µM (inactive)

Recorded GI50 for CN(C)c1ccc(C2CC(=O)CC(c3ccc(N(C)C)cc3)C23C(=O)NC(=S)NC3=O)cc1 (configuration not stated) , please?
> 100 µM (inactive)

Recorded GI50 for CN(C)C(=O)Oc1ccc(C(=S)Nc2ccccc2)cc1Br , please?
20.9 µM (inactive)

Recorded GI50 for C(=C\Nc1ccc(Oc2ccccc2)cc1)/C=N/c1ccc(Oc2ccccc2)cc1 , please?
15 µM (inactive)
